src = patent US20060009493A1

# pIC50 annotations
# target desc: GST fusion protein containing the Met kinase domain (Homo sapiens)
# Construct: Purified GST fusion protein containing the Met kinase domain, Sugen, Inc
# Sequence (P08581 1078-1345 limits assumed): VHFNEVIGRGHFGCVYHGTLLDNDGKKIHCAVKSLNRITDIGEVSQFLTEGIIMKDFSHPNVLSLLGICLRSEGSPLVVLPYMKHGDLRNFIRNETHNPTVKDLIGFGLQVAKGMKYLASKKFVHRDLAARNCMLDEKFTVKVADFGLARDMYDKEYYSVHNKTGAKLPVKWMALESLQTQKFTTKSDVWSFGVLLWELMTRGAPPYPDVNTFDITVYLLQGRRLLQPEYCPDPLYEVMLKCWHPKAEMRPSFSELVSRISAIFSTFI
# experiment: MET Transphosphorylation Assay (ELISA, poly(Glu,Tyr) 4:1 substrate)
# study conditions: met transphosphorylation of poly(glutamic acid:tyrosine 4:1) substrate; two values in a cell separated by '/'
Recall that pIC50 is obtained by taking minus log10 of the concentration measured in molar.

Answered examples (3):
- molecule: "O=C(Cc1ccc(O)cc1)N/N=C1\\C(=O)Nc2ccc(S(=O)(=O)NCCN3CCOCC3)cc21"
  target desc: "GST fusion protein containing the Met kinase domain (Homo sapiens)"
  pIC50: 7.11
- molecule: "Cc1ccc(Cl)c2c1NC(=O)/C2=N\\NC(=O)C(C)c1ccc(F)cc1 (centres unmarked)"
  target desc: "GST fusion protein containing the Met kinase domain (Homo sapiens)"
  pIC50: 6.70
- molecule: "CC(C(=O)N/N=C1\\C(=O)Nc2ccccc21)c1ccc(O)c(Br)c1 (centres unmarked)"
  target desc: "GST fusion protein containing the Met kinase domain (Homo sapiens)"
  pIC50: 6.74

Quick check: pIC50 of CC(C(=O)N/N=C1\C(=O)Nc2ccc(C(=O)NCCN3CCOCC3)c(Cl)c21)c1ccc(F)cc1 (centres unmarked) ?
6.96

Quick check: pIC50 of CC(C(=O)N/N=C1\C(=O)Nc2ccc(NC(=O)CN3CCOCC3)cc21)c1ccc(F)cc1 (centres unmarked) ?
5.23
